IC50: recorded values
# System: Smad signaling pathway of TGFβRI
# TEST: Inhibition of Smad signaling pathway of TGFβRI (3TP-lux luciferase reporter in HepG2 cell)
# Type: cell-based
# CONDITIONS: Homo sapiens; HepG2 cell, 3TP-lux plasmid, 18 hours; read-out: IC50 on the inhibition of Smad signaling pathway of TGFβRI
Write the value in nM as a bare number.

What does the data say about its IC50? Entry: NC(=O)c1nnc2cc(-c3c(-c4ccccn4)nc4n3[C@H]3CC[C@@H]4C3)ccn12 [Example 47-1]
53

Value lookup for IC50; key = CS(=O)(=O)c1ccc(-c2cc(-c3c(-c4ccccn4)nc4n3[C@H]3CC[C@@H]4C3)ccn2)cc1 [Example 46-1]
79

State the recorded IC50 for this entry: Cc1cccc(-c2nc3n(c2-c2cc4cnccc4s2)C2CCC3C2)n1 (centres unmarked) [Example 10]
23

// query IC50 value for entry Cc1cccc(-c2nc3n(c2-c2ccc4nccc(C(N)=O)c4c2)[C@H]2CC[C@@H]3C2)n1 [Example 1-1]
36

Suppose we examine the compound CS(=O)(=O)c1ccc(-c2cc(-c3c(-c4ccc(F)cn4)nc4n3[C@H]3CC[C@@H]4C3)ccn2)cc1 [Example 42-1] ; what IC50 value has been reported?
31

New cases:
Quick one: IC50 of NC(=O)c1ccnc2ccc(-c3c(-c4ccccn4)nc4n3[C@H]3CC[C@@H]4C3)cc12 [Example 45-1] ?
32

# lookup: IC50 of Cc1cccc(-c2nc3n(c2-c2ccnc(-c4cnn(C)c4)c2)C2CCC3C2)n1 (centres unmarked) [Example 12]
33

Give its IC50 value. Item: Cc1cccc(-c2nc3n(c2-c2ccnc(-c4ccc(S(C)(=O)=O)cc4)c2)[C@@H]2CC[C@H]3C2)n1 [Example 3-2]
31
